Attribution: patent US10526325B2

Recorded pIC50 for the following molecules
# System: PDH-E1alpha (pSer300) in HEK293T cells
# assay_info: Cellular immunofluorescence assay, PDH-E1alpha (pSer300) in HEK293T cells
# Type: cell-based, human
# condition: Homo sapiens, HEK-293T, 5 hours incubation, anti-PDH-E1alpha (pSer300) immunofluorescence, read-out: IC50 (cell data)
pIC50: −log10 of the molar value.

Use the examples below as a reference point.
{"molecule": "C[C@@H]1CN(C(=O)[C@@](C)(O)C(F)(F)F)Cc2cnn(-c3ccc(F)cn3)c21", "assayed_system": "PDH-E1alpha (pSer300) in HEK293T cells", "pIC50": "> 6.52"}
{"molecule": "C[C@@](O)(C(=O)N1CCn2c(cnc2-c2ccc(F)cc2)C1)C(F)(F)F", "assayed_system": "PDH-E1alpha (pSer300) in HEK293T cells", "pIC50": "4.30 to 5.52"}
{"molecule": "C[C@@](O)(C(=O)N1CCc2nn(-c3ccc(F)cc3F)cc2C1)C(F)(F)F", "assayed_system": "PDH-E1alpha (pSer300) in HEK293T cells", "pIC50": "4.30 to 5.52"}
{"molecule": "C[C@@H]1CN(C(=O)[C@@](C)(O)C(F)(F)F)Cc2cnc(-c3ncc(F)cc3F)n21", "assayed_system": "PDH-E1alpha (pSer300) in HEK293T cells", "pIC50": "> 6.52"}
{"molecule": "C[C@@H]1CN(C(=O)[C@@](C)(O)C(F)(F)F)Cc2cnc(-c3ccc(F)cc3F)n21", "assayed_system": "PDH-E1alpha (pSer300) in HEK293T cells", "pIC50": "> 6.52"}

**Query** Give recorded pIC50 with PDH-E1alpha (pSer300) in HEK293T cells for the following molecule: C[C@@H]1CN(C(=O)[C@@](C)(O)C(F)(F)F)Cc2cnn(-c3ncc(F)cc3F)c21
**Result** > 6.52

**Query** Write down the reported pIC50 of C[C@@](O)(C(=O)N1CCc2c(cnn2-c2ccc(F)cc2)C1)C(F)(F)F , test system: PDH-E1alpha (pSer300) in HEK293T cells.
**Result** 5.52 to 6.52

**Query** Form field - read-out: pIC50; system: PDH-E1alpha (pSer300) in HEK293T cells; submitted item: CC1CN(C(=O)[C@@](C)(O)C(F)(F)F)Cc2cnn(-c3ccccc3)c21 (some centres unmarked)
**Result** > 6.52

**Query** Provide the documented pIC50 with PDH-E1alpha (pSer300) in HEK293T cells as the system for CC(C)(C)n1cc2c(n1)CCN(C(=O)[C@@](C)(O)C(F)(F)F)C2
**Result** 4.30 to 5.52

**Query** Form field: pIC50 recorded for C[C@H]1CN(C(=O)[C@@](C)(O)C(F)(F)F)Cc2cnn(-c3ccccc3)c21 with PDH-E1alpha (pSer300) in HEK293T cells (enter value)
**Result** 5.52 to 6.52

**Query** Any idea what pIC50 came out for COc1ncc(F)c(-n2ncc3c2[C@@H](C)CN(C(=O)[C@@](C)(O)C(F)(F)F)C3)n1 on PDH-E1alpha (pSer300) in HEK293T cells?
**Result** 4.30 to 5.52

**Query** Request: pIC50, test system PDH-E1alpha (pSer300) in HEK293T cells, entry C[C@@H]1CN(C(=O)[C@@](C)(O)C(F)(F)F)Cc2cnn(-c3ccc(Cl)cc3)c21
**Result** > 6.52

**Query** Give the reported pIC50 for C[C@@H]1CN(C(=O)[C@@](C)(O)C(F)(F)F)Cc2cnn(-c3ncccc3F)c21 (system: PDH-E1alpha (pSer300) in HEK293T cells).
**Result** > 6.52

**Query** # query: pIC50 | item CC(C)(C)n1ncc2c1CCN(C(=O)[C@@](C)(O)C(F)(F)F)C2 | system: PDH-E1alpha (pSer300) in HEK293T cells
**Result** 5.52 to 6.52
